// data source = ChEMBL document CHEMBL1201862

biological target: Mitogen-activated protein kinase 10 (Homo sapiens, UniProt P53779); assay: Dose response biochemical screening assay for inhibitors of c-Jun N-Terminal Kinase 3 (JNK3). [Related pubchem assays: 746 ]
Sequence (P53779 whole entry): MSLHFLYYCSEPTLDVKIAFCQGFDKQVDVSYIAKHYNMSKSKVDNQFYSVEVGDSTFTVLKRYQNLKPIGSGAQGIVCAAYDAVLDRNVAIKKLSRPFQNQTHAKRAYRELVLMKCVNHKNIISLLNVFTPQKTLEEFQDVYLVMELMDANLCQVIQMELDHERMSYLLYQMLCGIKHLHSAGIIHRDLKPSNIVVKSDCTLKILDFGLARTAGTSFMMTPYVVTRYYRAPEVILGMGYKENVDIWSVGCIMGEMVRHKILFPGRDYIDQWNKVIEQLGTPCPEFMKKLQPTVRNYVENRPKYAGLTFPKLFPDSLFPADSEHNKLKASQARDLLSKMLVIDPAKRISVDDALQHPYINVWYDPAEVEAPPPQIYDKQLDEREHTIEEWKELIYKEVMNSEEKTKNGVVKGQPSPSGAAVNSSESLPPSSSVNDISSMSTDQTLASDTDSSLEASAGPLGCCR
reported metric: IC50

| molecule | reported metric | result |
| --- | --- | --- |
| COC(=O)c1ccccc1NC(=O)COC(=O)c1ccco1 | IC50 | 56.7 µM (not active) |
| CCOc1ccccc1NC(=O)COc1cccc(-n2cnnn2)c1 | IC50 | 69.2 µM (not active) |
| CCOc1ccc(-c2nc(N)ncc2-c2ccccc2)c(O)c1 | IC50 | 12.7 µM (not active) |
| COc1ccc(COC(=O)C2=C(C)NC(=O)NC2c2ccc(O)c(OC)c2)cc1 (centres undefined) | IC50 | 33.8 µM (not active) |

###

test system: INS1; experiment: beta cell apoptosis inhibitors, cytokine rescue, dose response, luminescence, retest (AID 449756); type: functional, cell-based; details: Rattus norvegicus;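 also: cell death triggered by IL-1 beta plus TNF-alpha plus IFN-gamma mixture; protective hits raise ATP signal compared with cytokine alone wells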
Active and inactive are the calls of the source.
The entries below come with measured AC50 values attached.

| compound | target | AC50 |
| --- | --- | --- |
| CCn1c(=O)c(C(=O)Nc2nc3ccccc3[nH]2)c(O)c2ccccc21 | INS1 | 3.83 µM (active) |
| CCC(C)c1ccc(NC(S)=NC2CCN(Cc3ccccc3)CC2)cc1 (centres undefined) | INS1 | 6.84 µM (active) |
| COc1cccc(/C=N/NC(=O)CNC(=O)c2cccs2)c1O | INS1 | 7.39 µM (active) |
| CCC(=O)NC(c1ccccc1OC)c1ccc2cccnc2c1O (centres undefined) | INS1 | 1.17 µM (active) |

###

The entries below come with measured IC50 values attached.
target: Sentrin-specific protease 7 (Homo sapiens); format: functional;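 also: Luminescence-based dose-response confirmation of ultra-high-throughput screening hits, measuring inhibition of SENP7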
Sequence (Q9BQF6 whole entry): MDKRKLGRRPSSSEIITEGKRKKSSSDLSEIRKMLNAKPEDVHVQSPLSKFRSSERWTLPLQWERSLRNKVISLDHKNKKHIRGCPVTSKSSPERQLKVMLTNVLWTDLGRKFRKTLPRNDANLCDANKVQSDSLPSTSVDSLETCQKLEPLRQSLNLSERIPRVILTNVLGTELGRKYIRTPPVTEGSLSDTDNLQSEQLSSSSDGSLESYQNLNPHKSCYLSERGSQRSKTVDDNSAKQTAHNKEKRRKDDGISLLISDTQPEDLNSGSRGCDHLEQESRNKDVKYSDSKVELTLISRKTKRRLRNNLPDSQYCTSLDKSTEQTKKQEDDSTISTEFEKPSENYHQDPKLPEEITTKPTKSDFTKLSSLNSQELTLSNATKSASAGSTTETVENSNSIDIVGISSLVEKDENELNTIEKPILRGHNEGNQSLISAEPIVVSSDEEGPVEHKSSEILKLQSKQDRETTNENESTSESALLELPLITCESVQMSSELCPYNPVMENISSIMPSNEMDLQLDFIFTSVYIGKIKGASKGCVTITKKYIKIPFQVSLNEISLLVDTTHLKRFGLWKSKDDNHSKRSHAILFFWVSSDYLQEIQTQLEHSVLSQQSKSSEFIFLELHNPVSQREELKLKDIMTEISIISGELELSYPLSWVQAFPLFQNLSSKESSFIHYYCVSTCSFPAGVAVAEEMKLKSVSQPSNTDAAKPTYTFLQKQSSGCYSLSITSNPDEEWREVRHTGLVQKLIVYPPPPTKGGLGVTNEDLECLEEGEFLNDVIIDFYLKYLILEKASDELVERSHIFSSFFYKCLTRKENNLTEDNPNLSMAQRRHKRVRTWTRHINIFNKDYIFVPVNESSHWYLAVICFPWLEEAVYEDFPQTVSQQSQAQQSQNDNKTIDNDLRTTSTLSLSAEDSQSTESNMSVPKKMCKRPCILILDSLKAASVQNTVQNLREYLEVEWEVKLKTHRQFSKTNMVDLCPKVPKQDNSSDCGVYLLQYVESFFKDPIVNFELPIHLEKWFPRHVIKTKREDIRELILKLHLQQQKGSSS
Active and inactive are the calls of the source.

| cpd smiles | IC50 |
| --- | --- |
| CCN(CC)c1ccc(C(=O)OCC(=O)Nc2sccc2C#N)cc1 | 11.6 µM (active) |
| Cc1cccc(C(=O)Nc2sc(C)c(-c3ccccc3)c2C#N)c1 | 7.15 µM (active) |
| CC(C)N(C(=O)Nc1ccc2nsnc2c1)C(C)C | 3.49 µM (active) |
| Fc1cccc2sc(N3CCCCC3)nc12 | 7.98 µM (active) |
| CC(C)n1cnc2c(NCc3ccccc3)cc(OCC3CCN(C)CC3)cc21 | 5.65 µM (active) |
| COc1ccc(/C=C/C(=O)c2ccccc2O)cc1 | 3.93 µM (active) |
| Cc1ccc(C)c(NC(=O)c2cc(-c3cc(C)ccc3O)[nH]n2)c1 | 5.17 µM (active) |
| NS(=O)(=O)c1ccc(NC2=CC(=O)C(=O)c3ccccc32)cc1 | 7.93 µM (active) |

###

Target: UniProt Q9GZV3
Sequence (Q9GZV3 whole entry): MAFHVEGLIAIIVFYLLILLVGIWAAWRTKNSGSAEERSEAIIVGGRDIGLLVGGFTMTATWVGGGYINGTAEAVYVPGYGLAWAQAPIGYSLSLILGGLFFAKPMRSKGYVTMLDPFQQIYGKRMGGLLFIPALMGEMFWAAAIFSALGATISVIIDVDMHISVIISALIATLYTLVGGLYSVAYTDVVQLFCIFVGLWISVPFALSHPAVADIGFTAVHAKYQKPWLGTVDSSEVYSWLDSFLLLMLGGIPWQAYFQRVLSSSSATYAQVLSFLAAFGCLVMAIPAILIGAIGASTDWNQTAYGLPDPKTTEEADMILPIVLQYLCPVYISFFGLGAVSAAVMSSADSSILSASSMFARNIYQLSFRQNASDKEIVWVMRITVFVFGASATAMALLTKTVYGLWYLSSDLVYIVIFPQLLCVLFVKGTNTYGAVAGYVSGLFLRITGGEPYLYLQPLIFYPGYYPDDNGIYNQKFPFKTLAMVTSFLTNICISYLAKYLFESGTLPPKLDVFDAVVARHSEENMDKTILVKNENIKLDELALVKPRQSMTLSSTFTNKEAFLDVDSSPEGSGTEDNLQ
Assay: CHT inhibitors, dose response, cell-based, 5-point CRC, membrane potential dye (AID 504840)
Assay type: functional
Calls of active or inactive are those of the source.
The entries below come with measured IC50 values attached.

| compound | IC50 |
| --- | --- |
| COc1ccc(C(CNC(=O)c2cccc(S(=O)(=O)Nc3ccc(C)cc3)c2)N2CCCCC2)cc1 (centres undefined) | 8.72 µM (active) |
| Cc1cccc(CCNC(=O)C2CCCN(c3ncnc4c3nc3n4CCCCC3)C2)c1 (centres undefined) | 11.8 µM (active) |
| CCCCn1c(CN2CCN(c3cccc(Cl)c3)CC2)nc2c1c(=O)n(C)c(=O)n2C | 15.1 µM (active) |
| c1ccc(CCN2CCN(c3ncnc4c3cnn4-c3ccccc3)CC2)cc1 | 30.2 µM (active) |

###

target: Fatty acid synthase (Homo sapiens, UniProt P49327); experiment: FAS thioesterase domain inhibitors, dose response, biochemical, endpoint fluorescence intensity, uHTS hits (AID 624327); format: functional;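 also: fluorescence from hydrolysis of an O-methyl fluorescein acyl ester substrate by the enzyme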
Sequence (P49327 whole entry, the tested form may be a part): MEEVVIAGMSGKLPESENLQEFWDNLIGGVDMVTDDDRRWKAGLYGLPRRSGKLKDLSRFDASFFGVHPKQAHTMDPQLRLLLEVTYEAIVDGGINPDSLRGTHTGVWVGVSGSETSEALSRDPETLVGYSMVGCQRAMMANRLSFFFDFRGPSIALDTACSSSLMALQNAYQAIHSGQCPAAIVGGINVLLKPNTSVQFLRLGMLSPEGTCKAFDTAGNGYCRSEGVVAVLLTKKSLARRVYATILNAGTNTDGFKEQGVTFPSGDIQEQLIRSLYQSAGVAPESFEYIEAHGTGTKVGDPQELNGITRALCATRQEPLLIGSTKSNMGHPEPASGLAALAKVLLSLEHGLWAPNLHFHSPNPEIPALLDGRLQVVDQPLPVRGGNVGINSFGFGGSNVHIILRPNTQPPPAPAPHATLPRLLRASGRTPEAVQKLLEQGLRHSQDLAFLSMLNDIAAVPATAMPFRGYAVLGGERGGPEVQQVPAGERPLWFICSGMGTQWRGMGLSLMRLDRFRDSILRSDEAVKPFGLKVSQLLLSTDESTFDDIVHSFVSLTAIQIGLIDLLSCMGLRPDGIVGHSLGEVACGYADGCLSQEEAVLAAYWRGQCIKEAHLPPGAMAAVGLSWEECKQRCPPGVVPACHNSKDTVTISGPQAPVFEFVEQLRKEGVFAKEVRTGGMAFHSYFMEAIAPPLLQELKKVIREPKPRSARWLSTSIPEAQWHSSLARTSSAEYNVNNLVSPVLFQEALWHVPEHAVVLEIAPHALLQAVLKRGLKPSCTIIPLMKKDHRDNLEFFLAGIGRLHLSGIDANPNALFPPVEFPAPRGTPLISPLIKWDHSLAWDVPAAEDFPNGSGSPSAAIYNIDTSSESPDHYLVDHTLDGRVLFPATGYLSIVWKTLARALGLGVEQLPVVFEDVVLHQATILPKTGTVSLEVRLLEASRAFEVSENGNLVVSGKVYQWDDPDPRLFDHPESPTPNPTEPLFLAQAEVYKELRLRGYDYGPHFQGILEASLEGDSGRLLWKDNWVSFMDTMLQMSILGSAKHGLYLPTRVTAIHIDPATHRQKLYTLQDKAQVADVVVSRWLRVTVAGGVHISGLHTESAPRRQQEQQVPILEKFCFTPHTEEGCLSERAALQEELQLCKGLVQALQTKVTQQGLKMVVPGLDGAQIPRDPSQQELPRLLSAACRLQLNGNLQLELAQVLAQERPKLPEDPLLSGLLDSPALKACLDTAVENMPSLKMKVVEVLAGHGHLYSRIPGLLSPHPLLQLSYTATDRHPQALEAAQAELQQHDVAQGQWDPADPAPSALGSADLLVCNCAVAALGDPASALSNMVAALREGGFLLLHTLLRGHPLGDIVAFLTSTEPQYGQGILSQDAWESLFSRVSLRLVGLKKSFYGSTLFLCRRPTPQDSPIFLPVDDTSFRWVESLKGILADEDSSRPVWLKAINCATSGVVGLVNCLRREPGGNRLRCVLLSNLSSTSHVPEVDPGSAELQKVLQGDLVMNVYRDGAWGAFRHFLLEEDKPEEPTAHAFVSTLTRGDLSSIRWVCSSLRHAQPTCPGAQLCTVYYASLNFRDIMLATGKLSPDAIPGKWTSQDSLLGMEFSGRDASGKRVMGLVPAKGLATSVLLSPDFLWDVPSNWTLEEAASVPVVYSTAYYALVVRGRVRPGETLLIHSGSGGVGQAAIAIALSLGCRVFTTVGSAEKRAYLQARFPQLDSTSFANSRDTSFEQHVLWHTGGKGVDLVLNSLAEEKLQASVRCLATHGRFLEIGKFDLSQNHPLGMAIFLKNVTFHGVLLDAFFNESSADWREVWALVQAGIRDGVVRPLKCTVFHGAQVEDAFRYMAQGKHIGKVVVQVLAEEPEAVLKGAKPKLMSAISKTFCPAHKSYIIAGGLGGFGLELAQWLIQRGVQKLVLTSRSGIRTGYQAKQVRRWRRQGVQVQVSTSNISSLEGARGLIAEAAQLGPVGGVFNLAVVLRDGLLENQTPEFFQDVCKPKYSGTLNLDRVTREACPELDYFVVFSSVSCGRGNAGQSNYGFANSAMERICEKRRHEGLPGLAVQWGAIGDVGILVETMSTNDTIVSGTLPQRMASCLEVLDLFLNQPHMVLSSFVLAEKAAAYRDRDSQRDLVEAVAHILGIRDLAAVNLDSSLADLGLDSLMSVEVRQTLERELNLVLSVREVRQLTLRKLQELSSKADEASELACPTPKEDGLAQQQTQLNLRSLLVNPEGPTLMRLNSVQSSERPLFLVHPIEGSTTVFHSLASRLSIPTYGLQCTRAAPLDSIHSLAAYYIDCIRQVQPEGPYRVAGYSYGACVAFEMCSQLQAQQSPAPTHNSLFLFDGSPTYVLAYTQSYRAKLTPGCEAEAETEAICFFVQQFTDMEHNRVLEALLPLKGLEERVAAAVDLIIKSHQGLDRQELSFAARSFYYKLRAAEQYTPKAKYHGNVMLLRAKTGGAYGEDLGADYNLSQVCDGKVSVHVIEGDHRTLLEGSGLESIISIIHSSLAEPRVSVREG
Activity calls are given as the source filed them.
The entries below come with measured IC50 values attached.

| compound | target | IC50 |
| --- | --- | --- |
| CCCCn1c(CN2CCN(c3cccc(Cl)c3)CC2)nc2c1c(=O)n(C)c(=O)n2C | Fatty acid synthase (Homo sapiens, UniProt P49327) | 5.07 µM (active) |
| Cc1ccc(-c2c(C(=O)N(C)Cc3ccccc3)oc(=O)c3ccccc23)cc1 | Fatty acid synthase (Homo sapiens, UniProt P49327) | 11.6 µM (active) |
| C/C=C/C=C/C(=O)OC(C)C(=O)Nc1cc([N+](=O)[O-])ccc1OC (stereo not given) | Fatty acid synthase (Homo sapiens, UniProt P49327) | 4.02 µM (active) |
| O=C(COc1ccc(S(=O)(=O)N2CCCCC2)cc1)Nc1ccccc1F | Fatty acid synthase (Homo sapiens, UniProt P49327) | 16 µM (active) |
| CCOc1ccccc1N(CC)C(=O)c1ccc2c(=O)n3c(nc2c1)CCCCC3 | Fatty acid synthase (Homo sapiens, UniProt P49327) | 3.88 µM (active) |

###

target: Tyrosine-protein phosphatase non-receptor type 7 (Homo sapiens, UniProt P35236); assay: redox-dependent HePTP inhibition, mechanism study, biochemical, fluorescence (AID 2068); assay type: functional
Sequence (P35236 whole entry): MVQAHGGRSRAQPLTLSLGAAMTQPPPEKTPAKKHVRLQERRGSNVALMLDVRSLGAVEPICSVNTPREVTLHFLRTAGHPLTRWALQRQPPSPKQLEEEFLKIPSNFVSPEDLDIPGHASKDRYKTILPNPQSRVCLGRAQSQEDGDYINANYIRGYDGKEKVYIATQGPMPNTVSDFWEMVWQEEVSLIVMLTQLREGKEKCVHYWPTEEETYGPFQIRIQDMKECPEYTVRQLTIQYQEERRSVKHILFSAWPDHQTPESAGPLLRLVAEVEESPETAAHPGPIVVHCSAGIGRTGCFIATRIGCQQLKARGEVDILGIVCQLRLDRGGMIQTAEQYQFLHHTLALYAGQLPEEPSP
Active and inactive are the calls of the source.
Outcome codes: y = active, n = inactive

| compound | class label |
| --- | --- |
| NS(=O)(=O)c1cccc(C(=O)NC2CCSc3ccccc32)c1 (stereo not given) | n |
| COc1cc(/C=C2\SC(=O)N(CC(=O)Nc3ccc(C)cc3)C2=O)cc(Cl)c1OCC(=O)O | y |
| CCOC(=O)c1sc2nc3c(SCCC(=O)O)cc(C(=O)c4cc(OC)ccc4O)cn3c(=O)c2c1C | y |
| O=C(NCc1ccccn1)c1ccc2nc(-c3ccco3)c(-c3ccco3)nc2c1 | y |
| O=C(Nc1ccc2nc(-c3ccco3)c(-c3ccco3)nc2c1)N1CCSCC1 | y |

###

target: Cytochrome P450 3A4 (Homo sapiens, UniProt P08684);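 also: CYP3A4 tested as one member of a cytochrome P450 panel screen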
Sequence (P08684 whole entry): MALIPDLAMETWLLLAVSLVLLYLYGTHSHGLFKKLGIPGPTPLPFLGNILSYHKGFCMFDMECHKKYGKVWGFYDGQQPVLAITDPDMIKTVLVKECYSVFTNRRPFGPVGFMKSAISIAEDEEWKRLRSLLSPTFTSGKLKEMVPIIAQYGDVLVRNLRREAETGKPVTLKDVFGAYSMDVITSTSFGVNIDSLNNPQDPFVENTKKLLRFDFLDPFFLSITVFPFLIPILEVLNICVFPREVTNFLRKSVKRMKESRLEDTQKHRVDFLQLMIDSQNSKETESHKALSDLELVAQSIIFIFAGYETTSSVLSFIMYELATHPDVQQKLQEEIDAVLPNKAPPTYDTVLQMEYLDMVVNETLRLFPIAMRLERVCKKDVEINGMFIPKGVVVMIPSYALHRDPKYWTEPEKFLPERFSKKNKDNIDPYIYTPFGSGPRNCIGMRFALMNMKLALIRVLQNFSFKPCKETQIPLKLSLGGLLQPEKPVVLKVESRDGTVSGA

| cpd smiles | AC50 |
| --- | --- |
| CCc1noc(N)c1C(=O)Nc1ccc(F)c(Cl)c1 | 15.8 µM (inconclusive) |
| COc1ccc(C(=O)N2CCC3(CCCN(c4ncccn4)C3)CC2)cc1 | 39.8 µM (inconclusive) |
| Cc1nc2ncnn2c(C)c1CCC(=O)NCCC1=CCCCC1 | 15.8 µM (inconclusive) |

###

biological target: Heat shock factor protein 1 (Mus musculus); assay: HSF1 potentiators in luciferase reporter cells, confirmation, cell-based, NIH3T3, luminescence, dose retest (AID 435004); type: functional;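 also: stress induced by proteasome inhibitor MG132 added 30 min after compound; luciferase reporter driven by HSF1 response element in NIH3T3 cells; actives raise luminescence as potentiators of the MG132 stress response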
Activity calls are given as the source filed them.
Outcome codes: 1 = active, 0 = inactive

| compound | class label |
| --- | --- |
| CC(=O)c1nn(-c2cccc(Br)c2)cc1C(=O)c1ccc(Cl)cc1 | 0 |
| O=C1C2=C(N=C(S)NC2c2ccc(Cl)cc2)NC(c2ccc(Cl)cc2)N1c1ccc(Cl)cc1 (centres undefined) | 0 |
| Cc1n[nH]c2c1C(c1cc(Br)cs1)C(C#N)=C(N)O2 (centres undefined) | 1 |
| C=CCn1c(S)nnc1C1CCCCC1 | 0 |
| O=C(O)CCC(=O)NCCn1c(-c2ccccc2)cs/c1=N\c1ccccc1 | 0 |
| O=C(CCC(=O)N1CCN(c2ccc(O)cc2)CC1)c1ccc(Br)cc1 | 0 |
| COc1ccc(-c2c[nH]nc2-c2ccc(OCc3ccc([N+](=O)[O-])cc3)cc2O)cc1OC | 0 |
| Cc1cc(C)nc(Sc2nc(Cl)nc(N(c3ccccc3)c3ccccc3)n2)n1 | 0 |
| O=C(OC1CCOC1=O)c1cc(Cl)ccc1[N+](=O)[O-] (centres undefined) | 0 |

###

assay: inhibitors of intracellular T. cruzi replication, confirmation, NIH3T3 host cells, beta-gal luminescence (AID 2044); assay type: functional, cell-based;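 also: intracellular parasites grown in NIH/3T3 mouse fibroblasts as host cells; luminescent beta-galactosidase reporter signal from transgenic T. cruzi replicating inside host cells; inhibitors lower the luminescence signal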
Calls of active or inactive are those of the source.

| molecule | EC50 |
| --- | --- |
| CCCCn1c(N)c(N(CCC(C)C)C(=O)c2ccc([N+](=O)[O-])s2)c(=O)[nH]c1=O | 997 nM (active) |
| O=C(NCC(c1cccnc1)N1CCN(c2ccccc2F)CC1)Oc1ccccc1 (stereo unspecified) | 401 nM (active) |
| Cc1ccccc1NC(S)=NCC1CCN(C(C)c2ccccc2)C1 (stereo unspecified) | 1100 nM (active) |
| CCOc1ccc(CN2CCC(n3nccc3NC(=O)c3ccccc3OC)CC2)cc1 | 997 nM (active) |
| CCOc1ccc(CN2CCCC(N3CCN(c4ccc(OC)cc4)CC3)C2)cc1 (stereo unspecified) | < 100 nM (active) |
| Cc1cc(NC(=O)C23CC4CC(C2)CC(n2cnc([N+](=O)[O-])n2)(C4)C3)no1 | < 100 nM (active) |
